List of TGI values.
test system: CAKI-1 renal; assay: NCI tumour cell line growth inhibition, 48 h
Measured quantity: TGI

chemical_smiles=O=[N+]([O-])c1cccc(N=Nc2c(O)c(S(=O)(=O)O)cc3cc(S(=O)(=O)O)ccc23)c1 tested_system="CAKI-1 renal" result="> 100 µM"
chemical_smiles=CC(=O)Nc1ccc(OC/C(N)=N/NC(=O)c2ccncc2)cc1 tested_system="CAKI-1 renal" result="> 100 µM"
chemical_smiles=Cc1cc(C)c2c(c1)C(=O)/C(=C/c1ccccc1C(=O)O)C2 tested_system="CAKI-1 renal" result="> 100 µM"
chemical_smiles=Cc1ccc(S(=O)(=O)Nn2c(O)c(C#N)c(-c3ccc(Cl)cc3)c(C#N)c2=O)cc1 tested_system="CAKI-1 renal" result="> 100 µM"
chemical_smiles=c1ccc(-c2nc(N3CCOCC3)c3c4c(sc3n2)CCCCCC4)nc1 tested_system="CAKI-1 renal" result="16.1 µM"
